Assay: Biodistribution of 67Ga-radiolabeled peptides
Design: species or system mouse
Conditions: female, CD1, mouse, in vivo, iv, 100 uCi, total radioactivity, Tissue distribution, Intestine
Residues, ends and D or L forms follow the SMILES beside them. *: point of attachment. NODAGA = O=C(O)CN1CCN(CC(=O)O)CCN(C(CCC(=O)*)C(=O)O)CC1

>  <molecule>
CC[C@H](C)[C@H](NC(=O)[C@H](C)NC(=O)CNC(=O)[C@H](CO)NC(=O)[C@H](CCCNC(=N)N)NC(=O)[C@H](Cc1ccc(O)cc1)NC(=O)[C@H](CCCCN)NC(=O)CCC(C(=O)O)N1CCN(CC(=O)O)CCN(CC(=O)O)CC1)C(=O)N[C@H](C(=O)N[C@H](C(=O)NCC(=O)N[C@@H](Cc1ccc(O)cc1)C(N)=O)[C@@H](C)CC)[C@@H](C)O (stereo partly shown) [67Ga-BBBpS_2, metal not drawn] ({NODAGA}-KYRSGAITIGY-NH2)

>  <tissue uptake at 1 h (%ID/g)>
0.4

$$$$
>  <molecule>
CC[C@H](C)[C@H](NC(=O)[C@H](C)NC(=O)CNC(=O)[C@H](CCCCN)NC(=O)[C@H](Cc1ccc(O)cc1)NC(=O)[C@H](CCCCN)NC(=O)CCC(C(=O)O)N1CCN(CC(=O)O)CCN(CC(=O)O)CC1)C(=O)N[C@H](C(=O)NCC(=O)N[C@@H](CC(N)=O)C(=O)N[C@H](C(=O)N[C@@H](CCCCN)C(N)=O)[C@@H](C)CC)[C@@H](C)CC (stereo partly shown) [67Ga-BBBpS_1, metal not drawn] ({NODAGA}-KYKGAIIGNIK-NH2)

>  <tissue uptake at 1 h (%ID/g)>
0.2

$$$$
>  <molecule>
CC(C)C[C@H](NC(=O)[C@H](Cc1c[nH]c2ccccc12)NC(=O)[C@H](Cc1ccccc1)NC(=O)[C@H](CCC(N)=O)NC(=O)[C@H](C)NC(=O)[C@H](CO)NC(=O)[C@H](CC(=O)O)NC(=O)[C@@H]1CCCN1C(=O)[C@H](CCCNC(=N)N)NC(=O)[C@H](CC(N)=O)NC(=O)CCC(C(=O)O)N1CCN(CC(=O)O)CCN(CC(=O)O)CC1)C(=O)N[C@@H](Cc1c[nH]cn1)C(=O)N[C@@H](Cc1c[nH]cn1)C(N)=O (stereo partly shown) [67Ga-BBBpS_9, metal not drawn] ({NODAGA}-NRPDSAQFWLHH-NH2)

>  <tissue uptake at 1 h (%ID/g)>
0.2

$$$$
>  <molecule>
CC[C@H](C)[C@H](NC(=O)[C@H](Cc1c[nH]cn1)NC(=O)CCC(C(=O)O)N1CCN(CC(=O)O)CCN(CC(=O)O)CC1)C(=O)N[C@@H](CCC(N)=O)C(=O)N[C@@H](CC(C)C)C(=O)N[C@@H](CO)C(=O)N1CCC[C@H]1C(=O)N[C@@H](Cc1ccccc1)C(=O)N[C@@H](CO)C(=O)N[C@@H](CCC(N)=O)C(=O)N[C@@H](CO)C(=O)N[C@@H](Cc1c[nH]c2ccccc12)C(=O)N[C@@H](CCCNC(=N)N)C(N)=O (stereo partly shown) [67Ga-BBBpS_5, metal not drawn] ({NODAGA}-HIQLSPFSQSWR-NH2)

>  <tissue uptake at 1 h (%ID/g)>
0.4

$$$$
